- System: Vero E6 infected with SARS-CoV-2
- EXPERIMENT_DESCRIPTION: inhibition of SARS-CoV-2 cytopathic effect; higher = more antiviral protection, active = above 15
- CONDITION_SET: 1 nM; 48 h
PARAMETER_MEASURED: inhibition of SARS-CoV-2 cytopathic effect (%)
Write it as a number; the unit % goes unstated.

query: What value of inhibition of SARS-CoV-2 cytopathic effect has been reported for the following molecule? C[C@H]1NCc2cc(-c3ccc4c(=O)c(C(=O)O)cn(C5CC5)c4c3OC(F)F)ccc21 [garenoxacin]
result: -4.16

query: Given the molecule N#Cc1c(N(CC(=O)O)CC(=O)O)sc(C(=O)O)c1CC(=O)O [Strontium Ranelate] , what is its reported inhibition of SARS-CoV-2 cytopathic effect?
result: 1.28

query: Need inhibition of SARS-CoV-2 cytopathic effect of Oc1nc(-c2ccc(C(F)(F)F)cc2)nc2c1CSCC2 , thanks.
result: 4.88

query: Look up inhibition of SARS-CoV-2 cytopathic effect for this molecule: CC1Nc2ccc(Cl)cc2S(=O)(=O)N1 (configuration not stated)
result: 0.09

query: Which inhibition of SARS-CoV-2 cytopathic effect is listed for C[n+]1ccc(C(=O)NCc2ccccc2)cc1 [enisamium-iodide] ?
result: -0.64

query: Fill blank: measured inhibition of SARS-CoV-2 cytopathic effect of the molecule NC(=O)CCCCC1CCSS1 (configuration not stated) [lipoamide] is ____.
result: 1.2

query: I'd like to know its inhibition of SARS-CoV-2 cytopathic effect. The molecule in question is CCC(C)(C)C(=O)O[C@H]1C[C@@H](C)C=C2C=C[C@H](C)[C@H](CC[C@@H]3C[C@@H](O)CC(=O)O3)[C@H]21 [simvastatin]
result: -3.26

query: Dear colleague, I am looking for the recorded inhibition of SARS-CoV-2 cytopathic effect of the following molecule: CC(=O)[O-].CC(=O)[O-].N.NC1CCCCC1.[Cl-].[Cl-].[Pt+4] [satraplatin]
result: 3.89

query: For the molecule shown here, C[C@@H](Nc1cc(F)cc(F)c1)c1cc(C(=O)N(C)C)cc2c(=O)cc(N3CCOCC3)oc12 , give the reported inhibition of SARS-CoV-2 cytopathic effect.
result: -3.44

query: Form field: reported inhibition of SARS-CoV-2 cytopathic effect of CO/N=C(\C(=O)N[C@@H]1C(=O)N2C(C(=O)O)=C(COC(N)=O)CS[C@H]12)c1ccco1
result: -0.51

query: Which inhibition of SARS-CoV-2 cytopathic effect reading was recorded for the molecule C[C@H](N)Cn1ccc2cc(F)c(Cl)cc21 ?
result: 1.25

query: Which inhibition of SARS-CoV-2 cytopathic effect reading was recorded for the molecule CCN(CCCOc1ccc2c(Nc3cc(CC(=O)Nc4cccc(F)c4)[nH]n3)ncnc2c1)CCOP(=O)(O)O [barasertib] ?
result: -0.38

query: Looking for the measured inhibition of SARS-CoV-2 cytopathic effect of Cc1cc(C(=O)N2Cc3cnn(C)c3Nc3ccccc32)ccc1CNC(=O)N1CCC[C@H]1C(=S)N1CCCN(C)CC1 , can you help?
result: -0.76

query: What value of measured inhibition of SARS-CoV-2 cytopathic effect is listed for OC[C@@H](O)[C@@H](O)[C@@H](O)CO [ribitol] ?
result: 2.52

query: # inhibition of SARS-CoV-2 cytopathic effect lookup, item O=C1c2c(O)cc(O)cc2O[C@H](c2cc(O)c(O)c(O)c2)[C@H]1O [dihydromyricetin]
result: 2.39

query: Endpoint output: inhibition of SARS-CoV-2 cytopathic effect of Nc1nc(=O)n([C@@H]2CS[C@H](CO)O2)cc1F [emtricitabine] . Value?
result: -0.33

query: What value of measured inhibition of SARS-CoV-2 cytopathic effect is listed for CNC(C)(C)Cc1ccccc1 [mephentermine] ?
result: -6.95

query: Item Oc1ccc2c3c1O[C@H]1c4[nH]c5ccccc5c4C[C@@]4(O)[C@@H](C2)N(CC2CC2)CC[C@]314 [naltrindole] has what recorded inhibition of SARS-CoV-2 cytopathic effect?
result: 1.74

query: Requested read-out: inhibition of SARS-CoV-2 cytopathic effect. Entry: O=C(O)c1cc2cccc([N+](=O)[O-])c2[nH]1
result: -1.29

query: What inhibition of SARS-CoV-2 cytopathic effect value was documented for this molecule, C[C@@H](CN)CC(=O)O [3-methyl-GABA] ?
result: 0.49

query: Request the reported inhibition of SARS-CoV-2 cytopathic effect associated with OB1OCc2cc(F)ccc21 [tavaborole]
result: -0.98

query: I'd like to know its inhibition of SARS-CoV-2 cytopathic effect. The molecule in question is FC(F)(F)Oc1ccc2nc(-c3ccc(OCCOCCOc4ccc(-c5nc6ccc(OC(F)(F)F)cc6[nH]5)nc4)cn3)[nH]c2c1
result: -0.41

query: # lookup: inhibition of SARS-CoV-2 cytopathic effect of CCCc1cc(C)[nH]c(=O)c1CNC(=O)c1cc(-c2ccc(N3CCN(C(C)C)CC3)nc2)cc2c1cnn2C(C)C
result: -1.83

query: Entry O=c1ccc2ccccc2o1 [coumarin] has what inhibition of SARS-CoV-2 cytopathic effect?
result: -0.97

query: I would be grateful if you could share the reported inhibition of SARS-CoV-2 cytopathic effect for Cc1ncc(CN2CC=C(c3ccccc3)CC2)c(N)n1 .
result: 0.67

query: Bench note: what inhibition of SARS-CoV-2 cytopathic effect did Cc1nnc(-c2ccc3occ(-c4ccc([S+](C)[O-])cc4)c3c2)o1 (configuration not stated) show?
result: 0.61

query: Requested field: inhibition of SARS-CoV-2 cytopathic effect. Item: CCCC[C@@H](NC(=O)[C@@H](Cc1cn(C(=O)OC)c2ccccc12)NC(=O)[C@H](CC(C)(C)C)NC(=O)N1[C@H](C)CCC[C@@H]1C)C(=O)O
result: 1.03

* * *

- System: Vero E6 infected with SARS-CoV-2
- EXPERIMENT_DESCRIPTION: inhibition of SARS-CoV-2 cytopathic effect; higher = more antiviral protection, active = above 15
- CONDITION_SET: 100 nM; 48 h
Can you tell me inhibition of SARS-CoV-2 cytopathic effect for the items I'm about to list?
Number only, in %; omit the unit.

query: inhibition of SARS-CoV-2 cytopathic effect lookup needed for CC(C)c1noc(N2CCC(COc3ccc(-c4ccc(S(C)(=O)=O)cc4)nc3)CC2)n1 , thanks.
result: -1.48

query: Give its inhibition of SARS-CoV-2 cytopathic effect value. Item: CCn1cc(C(=O)O)c(=O)c2cnc(N3CCCC3)nc21
result: 0.19

query: Dear colleague, I am looking for the recorded inhibition of SARS-CoV-2 cytopathic effect of the following compound: OCCN1CCN(CCCN2c3ccccc3Sc3ccc(Cl)cc32)CC1
result: 0.83

query: Which inhibition of SARS-CoV-2 cytopathic effect value belongs to Cc1nc2ccccc2c(-c2ccc3c4c(ccnc24)CCO3)c1[C@H](OC(C)(C)C)C(=O)O ?
result: -4.38

query: Could you tell me which inhibition of SARS-CoV-2 cytopathic effect is on file for COc1cc(C=O)ccc1O ?
result: 1.04

query: // lookup inhibition of SARS-CoV-2 cytopathic effect for CC(C)Cn1cnc2c(N)nc3ccccc3c21
result: -0.63

query: Recorded inhibition of SARS-CoV-2 cytopathic effect for C=CC1=C(C(=O)O)N2C(=O)[C@@H](NC(=O)/C(=N\O)c3csc(N)n3)[C@H]2SC1 , please?
result: 2.17

query: So what does the record say about inhibition of SARS-CoV-2 cytopathic effect for CNS(=O)(=O)Cc1ccc2[nH]cc(CCN(C)C)c2c1 ?
result: 1.25

* * *

- Tested on: Vero E6 infected with SARS-CoV-2
- EXPERIMENT_DESCRIPTION: inhibition of SARS-CoV-2 cytopathic effect; higher = more antiviral protection, active = above 15
- CONDITION_SET: 10000 nM; 48 h
Can you answer with just one of these options? active, inactive

query: Lab log entry: CCCCc1oc2ccc(NS(C)(=O)=O)cc2c1C(=O)c1ccc(OCCCN(CCCC)CCCC)cc1 [dronedarone] — outcome as called in the assay?
result: active

query: Could you check what this test reported for O=C(O)c1cc2ccccc2s1 ?
result: inactive

query: Could you check what this test reported for CC(C)[C@H](NS(=O)(=O)c1ccc(-c2ccc(Br)cc2)cc1)C(=O)O ?
result: inactive

query: Assay result, entry Cc1cc(NC(=O)Nc2ccc(F)c(F)c2)n(-c2ccccc2)n1 — outcome?
result: inactive

query: Could you please tell me the result logged for COc1ccc(/C=C/C(=O)Nc2ccccc2C(=O)O)cc1OC [tranilast] in this assay?
result: inactive

query: Look up the recorded call for CC(CCc1ccccc1)NCC(O)c1ccc(O)c(C(N)=O)c1 (stereo unspecified) [labetalol] in this test.
result: inactive

* * *

- Tested on: Vero E6 infected with SARS-CoV-2
- EXPERIMENT_DESCRIPTION: inhibition of SARS-CoV-2 cytopathic effect; higher = more antiviral protection, active = above 15
- CONDITION_SET: 10000 nM; 48 h
Where a name gives a salt, the structure may show the parent alone.
PARAMETER_MEASURED: inhibition of SARS-CoV-2 cytopathic effect (%)
Report the value in % with no unit label.

query: // lookup inhibition of SARS-CoV-2 cytopathic effect | system=Vero E6 infected with SARS-CoV-2 | key= Clc1ccccc1C(c1ccccc1)(c1ccccc1)n1ccnc1 [clotrimazole]
result: 2.73

query: Kindly state the measured inhibition of SARS-CoV-2 cytopathic effect obtained for Nc1ncc2c(n1)CC(c1ccco1)CC2=O (stereo not given) with Vero E6 infected with SARS-CoV-2.
result: 3.17

query: Missing value: inhibition of SARS-CoV-2 cytopathic effect, Vero E6 infected with SARS-CoV-2, entry CC1COc2c(N3CCN(C)CC3)c(F)cc3c(=O)c(C(=O)O)cn1c23 (stereo not given) [ofloxacin] . Fill in?
result: 1.25

query: Vero E6 infected with SARS-CoV-2 / inhibition of SARS-CoV-2 cytopathic effect / COC(=O)C[C@](O)(CCCC(C)(C)O)C(=O)O[C@@H]1C(OC)=C[C@]23CCCN2CCc2cc4c(cc2[C@H]13)OCO4 [homoharringtonine] : value?
result: -23.7

query: Item C[C@H](N)Cc1c[nH]cn1 [alpha-methylhistamine-dihydrobromide-(S)-(+)] with Vero E6 infected with SARS-CoV-2 - inhibition of SARS-CoV-2 cytopathic effect?
result: 2.96

query: Query inhibition of SARS-CoV-2 cytopathic effect on Vero E6 infected with SARS-CoV-2 for COc1ccc2nc3cc(Cl)ccc3c(Nc3cc(CN4CCCC4)c(O)c(CN4CCCC4)c3)c2n1 [pyronaridine]
result: -18.6

query: API: value(readout=inhibition of SARS-CoV-2 cytopathic effect, system=Vero E6 infected with SARS-CoV-2) for record CSc1ccc(C(=O)c2[nH]c(=O)[nH]c2C)cc1 [enoximone]
result: -2.39

query: What inhibition of SARS-CoV-2 cytopathic effect appears in the records for this compound with Vero E6 infected with SARS-CoV-2? CC(=O)N[C@@H](CC(=O)O)C(=O)N[C@@H](CCC(=O)O)C(=O)O [spaglumic-acid]
result: -1.24

query: What value of inhibition of SARS-CoV-2 cytopathic effect on Vero E6 infected with SARS-CoV-2 does C[C@]12CC[C@H](O)CC1=CC[C@@H]1[C@@H]2CC[C@]2(C)C(n3cnc4ccccc43)=CC[C@@H]12 [galeterone] have?
result: -6.94

query: Requested read-out inhibition of SARS-CoV-2 cytopathic effect, target or system Vero E6 infected with SARS-CoV-2, entry OC[C@H]1O[C@@H](c2ccc(F)c(Cc3cc4ccccc4s3)c2)[C@H](O)[C@@H](O)[C@@H]1O [ipragliflozin-L-proline]
result: 0.4

query: I'm curious: which inhibition of SARS-CoV-2 cytopathic effect was measured for CC(C)n1c(/C=C/[C@@H](O)C[C@@H](O)CC(=O)O)c(-c2ccc(F)cc2)c2ccccc21 [fluvastatin] tested on Vero E6 infected with SARS-CoV-2?
result: 2.61

query: Tell me reported inhibition of SARS-CoV-2 cytopathic effect for Cc1ccc(S(=O)(=O)NCl)cc1 [chloramine-T] , tested with Vero E6 infected with SARS-CoV-2.
result: -5.13

query: Hello, I am looking for reported inhibition of SARS-CoV-2 cytopathic effect with Vero E6 infected with SARS-CoV-2 for NS(=O)(=O)c1cc2c(cc1Cl)NC(C1CC3C=CC1C3)NS2(=O)=O (stereo not given) [cyclothiazide] . Could you help?
result: -1.44

query: Return inhibition of SARS-CoV-2 cytopathic effect measured with Vero E6 infected with SARS-CoV-2 given this compound: Clc1ccc([C@]23CNC[C@H]2C3)cc1Cl [amitifadine]
result: 3.82

query: State its inhibition of SARS-CoV-2 cytopathic effect on Vero E6 infected with SARS-CoV-2: CCCCCCC[N+](CC)(CC)CCCCc1ccc(Cl)cc1 [clofilium]
result: 3.38

query: Find inhibition of SARS-CoV-2 cytopathic effect (Vero E6 infected with SARS-CoV-2) for the entry O=C(O)c1cc(N2N=C(C(F)(F)F)/C(=C/c3ccc(-c4ccccc4)o3)C2=O)ccc1Cl
result: 3.69

query: Test system Vero E6 infected with SARS-CoV-2; read-out inhibition of SARS-CoV-2 cytopathic effect; what value for Nc1ccc(S(=O)(=O)Nc2ccccn2)cc1 [sulfapyridine] ?
result: -4.35

query: Value wanted: inhibition of SARS-CoV-2 cytopathic effect (Vero E6 infected with SARS-CoV-2) of entry COc1cc(F)c(C(C)C)cc1-c1ccc(C(F)(F)F)cc1CN1C(=O)O[C@H](c2cc(C(F)(F)F)cc(C(F)(F)F)c2)[C@@H]1C [anacetrapib]
result: 2.39

query: Can you look up inhibition of SARS-CoV-2 cytopathic effect on Vero E6 infected with SARS-CoV-2 for Cc1cccc(Oc2cnc(=O)[nH]c2)c1 [tolimidone] ?
result: 0.88

query: # get_value(readout= inhibition of SARS-CoV-2 cytopathic effect, system= Vero E6 infected with SARS-CoV-2) for [O-][S+](c1ccccc1)c1ccc2nnnn2n1 (stereo not given)
result: 14

query: Tell me reported inhibition of SARS-CoV-2 cytopathic effect for CCCCCCCCCCCCCCCCCCCCCCCCC(=O)O [pentacosanoic-acid] , tested with Vero E6 infected with SARS-CoV-2.
result: -2.38

query: Form field: inhibition of SARS-CoV-2 cytopathic effect recorded for CSc1ccc(C(=O)/C=C/c2cc(C)c(OC(C)(C)C(=O)O)c(C)c2)cc1 [elafibranor] with Vero E6 infected with SARS-CoV-2 (enter value)
result: 3.31

query: API: value(readout=inhibition of SARS-CoV-2 cytopathic effect, system=Vero E6 infected with SARS-CoV-2) for record CCn1c(=O)[nH]c2cc(Cl)c(Cl)cc21
result: -2.08

query: Give recorded inhibition of SARS-CoV-2 cytopathic effect with Vero E6 infected with SARS-CoV-2 for the following compound: O=C(O)[C@H](O)[C@@H](O)[C@H](O[C@@H]1O[C@H](CO)[C@H](O)[C@H](O)[C@H]1O)[C@H](O)CO [maltobionic-acid]
result: -1.2

query: Form field: inhibition of SARS-CoV-2 cytopathic effect recorded for [O-][n+]1cccc(CO)c1 [mepiroxol] with Vero E6 infected with SARS-CoV-2 (enter value)
result: 2.31
